Reference source: patent US20070077617

molecular target: fusion protein PRV
Sequence (chain, as listed by the source): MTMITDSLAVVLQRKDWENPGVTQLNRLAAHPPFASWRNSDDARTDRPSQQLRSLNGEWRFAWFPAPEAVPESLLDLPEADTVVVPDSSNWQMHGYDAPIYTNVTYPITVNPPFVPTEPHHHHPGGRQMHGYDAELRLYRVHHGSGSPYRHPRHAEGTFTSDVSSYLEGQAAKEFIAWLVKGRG
measuredParameter: relative cleavage efficiency (%)
A number alone suffices; assume %.

The protein identified as OmpT protease variant OmpT D97M (protein) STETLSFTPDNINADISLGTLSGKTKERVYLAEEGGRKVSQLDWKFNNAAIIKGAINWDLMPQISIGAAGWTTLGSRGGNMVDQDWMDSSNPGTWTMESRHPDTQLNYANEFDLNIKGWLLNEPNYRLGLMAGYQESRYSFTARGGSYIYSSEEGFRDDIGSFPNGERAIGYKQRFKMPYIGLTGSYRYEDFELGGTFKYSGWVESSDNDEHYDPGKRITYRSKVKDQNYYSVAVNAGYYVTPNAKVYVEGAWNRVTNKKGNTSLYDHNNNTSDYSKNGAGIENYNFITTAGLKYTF registered its relative cleavage efficiency at 3
